The reported numbers originate from patent EP0008888A1.

# MIC measurements, system: Proteus rettgeri WM16

[
  {
    "Compound": "CCSC1=C(C(=O)O)N2C(=O)[C@@H](C)[C@H]2C1 (relative stereo)",
    "MIC (µg/mL)": 25
  },
  {
    "Compound": "CNC(=O)OCCSC1=C(C(=O)[O-])N2C(=O)CC2C1.[Na+] (stereo not drawn)",
    "MIC (µg/mL)": 12.5
  },
  {
    "Compound": "NCCSC1=C(C(=O)O)N2C(=O)CC2C1 (stereo not drawn)",
    "MIC (µg/mL)": 25
  },
  {
    "Compound": "CSC1=C(C(=O)[O-])N2C(=O)CC2C1.[Na+] (stereo not drawn)",
    "MIC (µg/mL)": 25
  },
  {
    "Compound": "CCSC1=C(C(=O)OCc2ccc([N+](=O)[O-])cc2)N2C(=O)[C@@H](CCN=[N+]=[N-])[C@H]2C1 (relative stereo)",
    "MIC (µg/mL)": 6.2
  },
  {
    "Compound": "COC(=O)CCSC1=C(C(=O)O)N2C(=O)C[C@H]2C1",
    "MIC (µg/mL)": 25
  }
]
